test: CCTE_Shafer_MEA_dev_correlation_coefficient_mean: CCTE's Neural Network Formation Assay for Mean Correlation Coefficient, Shafer Lab (AID 2284093)
Activity calls are given as the source filed them. How the source made its calls: active means hit-call score of the fitted dose curve at least 0.9, where 1 is the maximum; inactive means score below 0.9.
Permitted responses: active, inactive

Below, 5 molecules whose answers are already recorded.
{"chemical.structure": "O=C(F)C(F)(F)C(F)(F)C(F)(F)C(=O)F", "class": "inactive"}
{"chemical.structure": "O=P(O)(O)CCC(F)(F)C(F)(F)C(F)(F)C(F)(F)C(F)(F)C(F)(F)F", "class": "inactive"}
{"chemical.structure": "O=CC(F)(F)C(F)(F)C(F)(F)F", "class": "inactive"}
{"chemical.structure": "FC(F)=C(F)C(F)(F)C(F)(F)C(F)(F)C(F)F", "class": "inactive"}
{"chemical.structure": "COC(=O)C(F)(F)C(F)(F)C(F)(F)C(F)(F)C(F)(F)F", "class": "inactive"}

### Prompt Dear colleague, could you share the recorded outcome for O=C(OC(=O)C(F)(F)C(F)(F)F)C(F)(F)C(F)(F)F when you have a moment?
### Response inactive
